molecular target: cGMP-inhibited 3',5'-cyclic phosphodiesterase 3B (Homo sapiens, UniProt Q13370); test: Inhibition of human recombinant PDE3B transfected in Sf9 cells by SPA
Sequence (Q13370 whole entry): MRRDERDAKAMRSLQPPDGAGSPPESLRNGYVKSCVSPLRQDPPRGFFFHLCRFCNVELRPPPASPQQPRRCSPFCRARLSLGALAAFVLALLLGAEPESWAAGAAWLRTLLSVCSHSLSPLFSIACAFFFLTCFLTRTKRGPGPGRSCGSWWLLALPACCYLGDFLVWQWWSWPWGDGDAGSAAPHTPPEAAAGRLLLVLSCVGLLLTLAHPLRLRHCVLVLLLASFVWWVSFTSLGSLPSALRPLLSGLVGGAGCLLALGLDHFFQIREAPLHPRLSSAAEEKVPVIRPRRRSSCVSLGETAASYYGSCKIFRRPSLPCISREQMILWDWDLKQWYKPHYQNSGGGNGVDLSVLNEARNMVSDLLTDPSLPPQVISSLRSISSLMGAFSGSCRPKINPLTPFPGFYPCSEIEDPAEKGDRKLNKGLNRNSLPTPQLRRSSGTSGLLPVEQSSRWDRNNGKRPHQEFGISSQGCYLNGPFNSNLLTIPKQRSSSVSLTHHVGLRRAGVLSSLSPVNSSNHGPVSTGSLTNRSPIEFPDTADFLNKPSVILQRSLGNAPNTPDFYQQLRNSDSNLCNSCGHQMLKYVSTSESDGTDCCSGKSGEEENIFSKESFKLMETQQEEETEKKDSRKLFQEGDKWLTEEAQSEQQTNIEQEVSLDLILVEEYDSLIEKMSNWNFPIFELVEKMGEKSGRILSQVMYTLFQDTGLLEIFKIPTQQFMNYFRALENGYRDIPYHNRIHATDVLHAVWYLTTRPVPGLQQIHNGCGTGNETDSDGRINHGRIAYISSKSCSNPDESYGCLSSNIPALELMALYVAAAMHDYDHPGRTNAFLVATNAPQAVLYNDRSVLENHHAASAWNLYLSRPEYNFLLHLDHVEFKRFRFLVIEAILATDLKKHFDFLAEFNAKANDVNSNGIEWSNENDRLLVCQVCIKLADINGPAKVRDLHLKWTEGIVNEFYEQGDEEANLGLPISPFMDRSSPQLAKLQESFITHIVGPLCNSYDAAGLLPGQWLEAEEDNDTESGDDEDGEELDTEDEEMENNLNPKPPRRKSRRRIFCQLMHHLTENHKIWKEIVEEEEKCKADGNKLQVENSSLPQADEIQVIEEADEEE
READOUT_KIND: Ki (nM)

Lookup result for COc1cc2ncnc(N3CC[C@@H](Oc4cc5ccccc5cn4)C3)c2cc1OC ; measured Ki: 196

(A) COc1cc2ncnc(N3CC[C@@H](Oc4ccc5ncccc5c4)C3)c2cc1OC
(B) COc1cc2ncnc(N3CC[C@@H](Oc4cccc5ccccc45)C3)c2cc1OC
stdin: Between the two listed entries A and B , which has its Ki at the higher number? Pick one and reply with its label.
stdout: A

* * *

biological target: cGMP-inhibited 3',5'-cyclic phosphodiesterase 3A (Homo sapiens); experiment: Inhibition of human recombinant PDE3A transfected in Sf9 cells by SPA
Sequence (Q14432 whole entry): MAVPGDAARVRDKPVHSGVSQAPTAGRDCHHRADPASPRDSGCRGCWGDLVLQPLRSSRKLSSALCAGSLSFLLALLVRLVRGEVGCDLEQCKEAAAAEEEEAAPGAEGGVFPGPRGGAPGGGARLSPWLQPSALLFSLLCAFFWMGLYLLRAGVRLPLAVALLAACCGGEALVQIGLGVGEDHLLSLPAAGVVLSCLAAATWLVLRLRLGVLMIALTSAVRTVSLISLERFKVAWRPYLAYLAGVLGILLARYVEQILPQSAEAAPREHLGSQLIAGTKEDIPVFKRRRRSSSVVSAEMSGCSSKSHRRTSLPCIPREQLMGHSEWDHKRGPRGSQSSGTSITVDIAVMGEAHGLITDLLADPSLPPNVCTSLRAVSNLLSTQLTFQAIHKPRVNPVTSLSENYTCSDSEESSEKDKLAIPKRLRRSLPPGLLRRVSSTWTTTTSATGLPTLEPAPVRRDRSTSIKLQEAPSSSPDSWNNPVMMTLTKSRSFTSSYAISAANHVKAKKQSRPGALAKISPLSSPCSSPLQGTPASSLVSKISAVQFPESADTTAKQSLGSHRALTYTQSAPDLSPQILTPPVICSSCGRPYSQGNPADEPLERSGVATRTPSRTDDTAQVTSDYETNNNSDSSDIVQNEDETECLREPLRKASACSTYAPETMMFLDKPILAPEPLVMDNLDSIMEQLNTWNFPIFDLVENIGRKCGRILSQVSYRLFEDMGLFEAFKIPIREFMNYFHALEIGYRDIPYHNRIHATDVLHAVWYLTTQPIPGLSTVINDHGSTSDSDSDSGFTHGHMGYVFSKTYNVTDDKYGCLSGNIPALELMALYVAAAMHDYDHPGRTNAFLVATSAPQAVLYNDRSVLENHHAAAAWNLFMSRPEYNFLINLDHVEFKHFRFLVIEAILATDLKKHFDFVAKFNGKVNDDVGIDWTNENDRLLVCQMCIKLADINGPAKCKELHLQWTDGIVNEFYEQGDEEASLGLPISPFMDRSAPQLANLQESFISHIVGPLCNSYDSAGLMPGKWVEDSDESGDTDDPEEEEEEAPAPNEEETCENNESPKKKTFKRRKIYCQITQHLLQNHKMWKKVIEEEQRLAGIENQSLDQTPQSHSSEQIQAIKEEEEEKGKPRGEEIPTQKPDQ
READOUT_KIND: Ki (nM)

Please review the following examples before continuing.
Lookup result for COc1cc2ncnc(N3CC[C@@H](Oc4ccncc4)C3)c2cc1OC ; measured Ki: 226

Lookup result for COc1cc2ncnc(N3CC[C@@H](Oc4cccc(-c5ccccc5)c4)C3)c2cc1OC ; measured Ki: 271

Lookup result for COc1cc2ncnc(N3CC[C@@H](Oc4ccc(C(C)(C)C)cc4)C3)c2cc1OC ; measured Ki: 720

Lookup result for COc1ccc2cc(O[C@@H]3CCN(c4ncnc5cc(OC)c(OC)cc45)C3)ccc2c1 ; measured Ki: 199

Lookup result for CCOc1ccc(O[C@@H]2CCN(c3ncnc4cc(OC)c(OC)cc34)C2)cc1 ; measured Ki: 161

(1) COc1cc2ncnc(N3CC[C@@H](Oc4cnc5ccccc5n4)C3)c2cc1OC
(2) CCOc1cccc(O[C@@H]2CCN(c3ncnc4cc(OC)c(OC)cc34)C2)c1
stdin: Between the two listed entries 1 and 2 , which has its Ki at the higher number? Pick one and reply with its label.
stdout: 1
